- MEASURED_ON: MAO-B (Homo sapiens, UniProt P27338)
- Construct: purchased BD Biosciences (San Jose, CA) or Corning Discovery Labware (Woburn, MA)
- Sequence (P27338 whole entry): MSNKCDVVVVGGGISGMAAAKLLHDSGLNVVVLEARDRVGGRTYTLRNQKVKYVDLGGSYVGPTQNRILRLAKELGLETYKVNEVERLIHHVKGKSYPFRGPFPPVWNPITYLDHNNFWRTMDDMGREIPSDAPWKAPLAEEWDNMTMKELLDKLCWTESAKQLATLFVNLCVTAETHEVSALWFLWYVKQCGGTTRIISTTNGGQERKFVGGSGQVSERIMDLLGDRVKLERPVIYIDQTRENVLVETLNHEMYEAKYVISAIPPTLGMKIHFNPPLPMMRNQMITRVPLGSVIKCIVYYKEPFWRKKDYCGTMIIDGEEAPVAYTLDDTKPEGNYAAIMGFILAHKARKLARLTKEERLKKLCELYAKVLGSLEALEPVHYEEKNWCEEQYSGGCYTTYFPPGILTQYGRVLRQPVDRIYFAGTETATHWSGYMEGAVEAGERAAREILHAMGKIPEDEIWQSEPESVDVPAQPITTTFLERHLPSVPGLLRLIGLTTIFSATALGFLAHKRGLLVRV
- ASSAY_METHOD_TEXT: MAO-B inhibition, kynuramine to 4-hydroxyquinoline, HPLC-fluorescence
- Assay type: biochemical
- DETAILS: from IC50 assuming competitive inhibition
MEASUREMENT_LABEL: pKi
Numbers only, as −log10 of the molar value.

Looking up Oc1ccc(/C=C/c2cc(O)cc(O)c2)cc1 [resveratrol] , I see its pKi listed as 4.99

Numbers sourced from paper PMC6364133.
